# protocolNotes: NCI Yeast Anticancer Drug Screen. Data for the cln2 rad14 strain (AID 165);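 note: 0% = growth equal to vehicle treated cultures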
# reportedConditions: S. cerevisiae cln2 rad14 strain, at 50.0 µM, active compounds read high
About 79,000 compounds went through this panel and 15% of them were active in at least one assay; those are over-represented in the sample as a whole. Activity calls are given as the source filed them. Cut-off read from the data, not from the text of the source: active = growth inhibition above about 70%; inactive = the rest.
endpointName: growth inhibition

Known growth inhibition results, listed for orientation:
# molecule, observedResult
records = [
    ("O=C(Nc1ccc(Cl)cc1)Nc1nnc2nc(C3(c4nc5nnc(NC(=O)Nc6ccc(Cl)cc6)n5[nH]c4=O)CCCC3=O)c(=O)[nH]n12", "-32.2% (inactive)"),
    ("Cc1ccc2ccccc2[n+]1CC(=O)c1ccc([N+](=O)[O-])cc1", "9.95% (inactive)"),
    ("C/C=C1\\OC(n2cnc3c(N)ncnc32)C(O)C1O (stereo not given)", "2.5% (inactive)"),
    ("CC(C)CCC(=O)C(C)C", "11.5% (inactive)"),
]

Consider now this further molecule.
Measured growth inhibition of "CC(=O)/C(=C/n1c(=S)sc2ccccc21)C(=O)Nc1ccc([N+](=O)[O-])cc1" : -15.8% (inactive)

All values here come from PubChem BioAssay (NCI).
